TGT: Abl kinase (Homo sapiens, UniProt P00519)
Sequence (P00519 229-512): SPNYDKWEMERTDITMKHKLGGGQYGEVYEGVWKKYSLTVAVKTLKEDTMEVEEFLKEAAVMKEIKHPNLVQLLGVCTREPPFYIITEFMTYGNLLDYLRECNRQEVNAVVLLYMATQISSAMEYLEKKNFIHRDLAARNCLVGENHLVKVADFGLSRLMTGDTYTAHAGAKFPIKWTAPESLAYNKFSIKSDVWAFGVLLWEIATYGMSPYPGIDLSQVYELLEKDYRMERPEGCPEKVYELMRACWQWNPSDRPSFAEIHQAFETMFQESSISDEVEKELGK
EXPERIMENTAL DETAILS: Abl kinase assay A1 (pyruvate kinase/lactate dehydrogenase coupled, spectrophotometric)
Assay type: biochemical
PARTICULARS: Method A1; read-out: Abl Data (IC50)
The reader will find reported pIC50 values listed item by item below.
# log scale: pIC50 equals minus log10 of the concentration in mol/L

Worked set:
>>> value_reported("CC(C)(C)c1cc(NC(=O)Nc2cccc(Cl)c2Cl)n(-c2cccc(C(=N)N)c2)n1")
6.36
>>> value_reported("CC(C)(C)c1cc(NC(=O)Nc2cccc(Cl)c2Cl)n(-c2ccc3c(c2)CN(S(C)(=O)=O)CC3)n1")
6.66
>>> value_reported("CC(=O)N1CCc2cc(-n3nc(C(C)(C)C)cc3NC(=O)Nc3cccc(Cl)c3Cl)ccc21")
6.74

Field pIC50 (system: Abl kinase (Homo sapiens, UniProt P00519)) for entry `CC(C)(C)c1cc(NC(=O)Nc2cccc(F)c2F)n(-c2ccc3c(c2)CCNC3)n1` = 6.70

Field pIC50 (system: Abl kinase (Homo sapiens, UniProt P00519)) for entry `CC(C)(C)c1cc(NC(=O)Nc2cccc(C#N)c2)n(-c2ccc3c(c2)NCC3)n1` = 6.19
